Data provenance: patent US20080026996A1

System name: T1, human VPAC2 receptor (human, UniProt P41587 24-438)
T1 sequence (looked up): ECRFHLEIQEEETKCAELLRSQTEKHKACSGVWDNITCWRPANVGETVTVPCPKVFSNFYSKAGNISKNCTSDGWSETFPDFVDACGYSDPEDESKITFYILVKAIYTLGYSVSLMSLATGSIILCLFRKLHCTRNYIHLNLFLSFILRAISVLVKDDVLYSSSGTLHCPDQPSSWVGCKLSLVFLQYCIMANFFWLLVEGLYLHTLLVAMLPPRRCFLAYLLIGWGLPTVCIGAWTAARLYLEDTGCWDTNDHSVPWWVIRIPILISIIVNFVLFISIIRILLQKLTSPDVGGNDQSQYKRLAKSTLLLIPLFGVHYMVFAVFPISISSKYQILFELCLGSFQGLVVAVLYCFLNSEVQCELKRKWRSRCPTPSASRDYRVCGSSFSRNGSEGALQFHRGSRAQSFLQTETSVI
Assay procedure: cell-based or functional assay
Where no end group is shown, it is not given here. [ ]: non-standard residue; d: D form. The star is where a group is joined. Hexanoyl = CCCCCC(=O)*; Aib = CC(C)(N)C(=O)O
Parameter EC50 cAMP, Alpha Screen: see the listing below.
Parameter measured: EC50 cAMP, Alpha Screen (nM)

Hexanoyl-HSDAVFTDNYTRLRKQVAAKKYLQIIKNKRYGGPSSGAPPPS [P113]; 0.26
Hexanoyl-HSDAVFTDQYTRLR[Aib]QVAA[Aib]KYLQSIKQKRYGGPSSGAPPPS (ends and bridges not checked) [P315]; 0.19
Hexanoyl-HSDAVFTDNYTRLRKQMAAQKYLNQLKKGGPSSGAPPPS [P143]; 0.1
